- test protocol: small-molecule binders of probe aNOTCH3, primary screen, biochemical, small-molecule microarray, 635/667 nm fluorescence (AID 1120);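 also: probe is a biotin-tagged antibody raised against NOTCH3 rather than NOTCH3 protein; score merges spot fluorescence near 667 nm with spot signal to noise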
- settings: higher = more signal
If the reported composite z-score equals or exceeds 0.2, assign T. If not, assign F.

Sample answers from the record:
compound	assigned class
COCCOC(=O)N1C(=O)[C@@]2(c3cc(C#CC4=CCCCC4)ccc31)[C@H](C(=O)NC[C@H](O)c1ccccc1)[C@H]1C(=O)O[C@H](c3ccccc3)[C@H](c3ccccc3)N1[C@@H]2c1ccc(O)cc1	F
Cc1cc(C)c(C(O)C2C=CC3C(=O)N(c4ccccc4)C(=O)C3N2Nc2ccc(C#N)cc2)c(C)c1 (stereo not drawn)	F
CC(C)c1ccc(NN2C(C(O)c3c(F)cccc3Cl)C=CC3C(=O)N(c4ccccc4)C(=O)C32)cc1 (stereo not drawn)	T
COc1ccc(C(O)C2C=CC3C(=O)N(c4ccccc4)C(=O)C3N2Nc2ccc([N+](=O)[O-])cc2)cc1OCc1ccccc1 (stereo not drawn)	T
O=C/C=C/c1ccc2c(c1)OCO2	F
[N-]=[N+]=NCc1ccccc1C[C@]1(C(=O)O)N=C(c2ccc(OCCCO)cc2)O[C@H]1c1ccccc1CN=[N+]=[N-]	F
CCCN1C(=O)[C@]2(COC(c3ccc(OCCCO)cc3)=N2)Cc2ccccc21	F

Read the next record carefully.
Query: Could you verify whether the entry COC(=O)C1=CC(CCCO)=CC(C2CC2)N(Cc2sc3ccccc3c2Cl)C=C1C(=O)OC (stereo not drawn) shows composite z-score of no less than 0.2?
Response: T

====

- system: Albumin (Bos taurus) (UniProt P02769)
- Sequence (P02769 whole entry, looked up): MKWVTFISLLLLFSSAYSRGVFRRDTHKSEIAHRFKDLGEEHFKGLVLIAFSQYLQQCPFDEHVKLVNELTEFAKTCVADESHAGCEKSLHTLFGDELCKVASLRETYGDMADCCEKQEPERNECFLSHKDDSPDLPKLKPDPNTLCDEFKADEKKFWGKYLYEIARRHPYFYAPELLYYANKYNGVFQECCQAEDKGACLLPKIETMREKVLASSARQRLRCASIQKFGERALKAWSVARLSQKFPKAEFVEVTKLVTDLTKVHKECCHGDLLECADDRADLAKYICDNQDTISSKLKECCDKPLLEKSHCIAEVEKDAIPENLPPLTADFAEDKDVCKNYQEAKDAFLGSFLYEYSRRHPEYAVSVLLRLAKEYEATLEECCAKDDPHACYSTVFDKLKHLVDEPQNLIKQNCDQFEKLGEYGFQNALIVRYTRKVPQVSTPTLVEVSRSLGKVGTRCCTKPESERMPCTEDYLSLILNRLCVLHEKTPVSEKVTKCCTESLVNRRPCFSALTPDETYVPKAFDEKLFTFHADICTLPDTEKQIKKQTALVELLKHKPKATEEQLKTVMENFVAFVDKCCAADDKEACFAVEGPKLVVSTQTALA
- test protocol: bovine serum albumin binders on microarray, profiling panel, artefact control for SMM control protein annotation, biochemical, small-molecule microarray, Alexa647 label, 635/667 nm fluorescence (AID 1118);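 also: score merges 667 nm emission intensity and signal-to-noise per printed compound spot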
- settings: BSA-A647 binding, fluorescence 635 nm, higher = more signal
Consider the following molecules and their measured composite z-score readings.
Number only, no unit.

> print(dat)
                                   molecule  test.value
1  CC(C)(C)OC(=O)CC[C@@]1(C(=O)NCCN2CCOCC2)N=C(c2ccc(OCCCO)cc2)O[C@@H]1c1ccccc1        1.03
2  O=C1[C@]2(CO)C=C(Br)[C@@H](C[C@@H]2c2ccccc2)[C@@]12CO2      -0.102
3  COc1ccc([Si](C)(C)[C@@H]2[C@@H](CCn3cc([C@H](O)c4ccccc4)nn3)O[C@]3(C(=O)N(Cc4cccc(N5CCOC5=O)c4)c4ccccc43)[C@H]2C)cc1      -0.424

Now for a further molecule.
Query: State its composite z-score on Albumin (Bos taurus) (UniProt P02769): COC(=O)c1ccc(C(O)C2C=CC3C(=O)N(C)C(=O)C3N2NC(=O)OC(C)(C)C)o1 (centres undefined)
Response: 0.538

====

- System: Plasmodium falciparum Sir2 (PF13_0152, Sir2A)
- test protocol: pfSir2 binders on small-molecule microarrays, primary screen, biochemical, small-molecule microarray, 635 nm fluorescence (AID 1098);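 also: score merges spot fluorescence intensity with its signal-to-noise ratio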
- settings: small-molecule microarray binding, fluorescence 635 nm; higher = more signal
property name: composite z-score
Hey, just send me the number, nothing else.

Some compounds with known composite z-score results, for comparison:
compound	composite z-score
Cc1c(NC(=O)CC#N)c(=O)n(-c2ccccc2)n1C	0.345
COCCOC(=O)N1C(=O)[C@@]2(c3cc(C#CCNC(N)=O)ccc31)[C@H](c1ccccc1OCCO)N1[C@H](c3ccccc3)[C@H](c3ccccc3)OC(=O)[C@H]1[C@@H]2C(N)=O	0.806

Now let's try a different one.
Query: May I ask what composite z-score has been recorded for COCCOC(=O)N1C(=O)[C@@]2(c3cc(C#CC4=CCCCC4)ccc31)[C@H](C(=O)NC[C@H](O)c1ccccc1)[C@H]1C(=O)O[C@H](c3ccccc3)[C@H](c3ccccc3)N1[C@@H]2c1ccc(O)cc1 ?
Response: 1.14
